Assay: chemical genetic growth profiling, strain panel (AID 1159580);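 note: tested at 20 µM; growth read once vehicle control cultures reached saturation at 30 °C; 1 = growth at the plate median or of vehicle wells; lower values mean less growth of the strain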
Conditions: S. cerevisiae deletion strains, growth OD, locus YMR129W, active compounds read low
Screen size: about 5,500 compounds; about 2,000 (36%) were called active. Not shown: some 18% with an inconclusive outcome. The list shows a part of the results.
readout: normalized growth
Give the figure by itself; no unit, no explanation.

**Q:** Fill blank: measured normalized growth of the molecule COc1cc2c(cc1OC)[C@@H]1C(=O)c3ccc4c(c3O[C@@H]1CO2)C=CC(C)(C)O4 is ____.
**A:** 0.995

**Q:** Fill blank: measured normalized growth of the molecule CC(Oc1ccccc1)C(=O)N[C@@H]1C(=O)N2[C@@H]1SC(C)(C)[C@@H]2C(=O)O (some centres not stated) is ____.
**A:** 0.99

**Q:** Fill blank: measured normalized growth of the molecule COc1ccc2c(c1)OCc1c-2oc2cc(OC)ccc12 is ____.
**A:** 0.985

**Q:** Fill blank: measured normalized growth of the molecule COc1cc2c(cc1OC)[C@@H]1C(=O)c3ccc(O)c(CC=C(C)C)c3O[C@@H]1CO2 is ____.
**A:** 1.01

**Q:** Fill blank: measured normalized growth of the molecule COc1cc(NC(C)CCCN)c2ncccc2c1 (configuration not stated) is ____.
**A:** 1.01

**Q:** Fill blank: measured normalized growth of the molecule C[C@H]1CC2C([C@@H](O)C[C@@]3(C)C2CC[C@]3(O)C(=O)CO)[C@@]2(C)C=CC(=O)C=C12 (some centres not stated) is ____.
**A:** 1

**Q:** Fill blank: measured normalized growth of the molecule c1cncc(C2CCCCN2)c1 (configuration not stated) is ____.
**A:** 0.99

**Q:** Fill blank: measured normalized growth of the molecule CC(=O)[C@H]1CCC2C3CCC4=CC(=O)CC[C@]4(C)C3CC[C@@]21C (some centres not stated) is ____.
**A:** 0.976

**Q:** Fill blank: measured normalized growth of the molecule COCCc1ccc(OCC(O)CNC(C)C)cc1 (configuration not stated) is ____.
**A:** 0.996

**Q:** Fill blank: measured normalized growth of the molecule COc1ccc2c(c1OC)C(=O)O[C@@H]2[C@H]1c2cc3c(cc2CCN1C)OCO3 is ____.
**A:** 1

**Q:** Fill blank: measured normalized growth of the molecule NCC1CCC(C(=O)O)CC1 (configuration not stated) is ____.
**A:** 0.999

**Q:** Fill blank: measured normalized growth of the molecule C[C@]12CCC(=O)C=C1CCC1C2CC[C@@]2(C)C1CC[C@@H]2O (some centres not stated) is ____.
**A:** 0.993

**Q:** Fill blank: measured normalized growth of the molecule COc1ccc2c(c1OC)C(=O)O[C@H]2[C@H]1c2cc3c(cc2CCN1C)OCO3 is ____.
**A:** 0.998

**Q:** Fill blank: measured normalized growth of the molecule CCOC(=O)CCC(=O)O[C@H]1[C@H](O[C@@H]2[C@@H](C)[C@H](O[C@H]3C[C@@](C)(OC)[C@@H](O)[C@H](C)O3)[C@@H](C)C(=O)O[C@H](CC)[C@@](C)(O)[C@H](O)[C@@H](C)C(=O)[C@H](C)C[C@@]2(C)O)O[C@H](C)C[C@@H]1N(C)C is ____.
**A:** 0.993

**Q:** Fill blank: measured normalized growth of the molecule COc1cc(O)c(C(=O)/C=C/c2ccc(OC)c(O)c2)c(OC)c1 is ____.
**A:** 0.992

**Q:** Fill blank: measured normalized growth of the molecule COC1=CC(=O)C[C@@H](C)[C@]12Oc1c(Cl)c(OC)cc(OC)c1C2=O is ____.
**A:** 0.983

**Q:** Fill blank: measured normalized growth of the molecule CC(NCCc1ccc(O)cc1)C(O)c1ccc(O)cc1 (configuration not stated) is ____.
**A:** 1.01

**Q:** Fill blank: measured normalized growth of the molecule c1ccc(N=Nc2ccccc2)cc1 is ____.
**A:** 0.991

**Q:** Fill blank: measured normalized growth of the molecule O=C(O)c1c2ccccc2cc2ccccc12 is ____.
**A:** 0.987

**Q:** Fill blank: measured normalized growth of the molecule CC(=O)O[C@H]1[C@@H]2[C@@H](OC(=O)Cc3ccccc3)[C@@H](C)C[C@]2(OC(C)=O)C(=O)/C(C)=C/[C@H]2[C@H](CC[C@@]13CO3)C2(C)C is ____.
**A:** 0.989

**Q:** Fill blank: measured normalized growth of the molecule CCOC(=O)[C@H](CCc1ccccc1)N[C@H]1CCc2ccccc2N(CC(=O)O)C1=O is ____.
**A:** 0.991

**Q:** Fill blank: measured normalized growth of the molecule CC1=C(CC(=O)O)c2cc(F)ccc2/C1=C\c1ccc(S(C)=O)cc1 (configuration not stated) is ____.
**A:** 1.02

**Q:** Fill blank: measured normalized growth of the molecule O=C(O)c1cc2ccccc2c(Cc2c(O)c(C(=O)O)cc3ccccc23)c1O is ____.
**A:** 0.997

**Q:** Fill blank: measured normalized growth of the molecule CN1CCc2cc3c(cc2[C@H]1C1OC(=O)c2c1ccc1c2OCO1)OCO3 (some centres not stated) is ____.
**A:** 0.995

**Q:** Fill blank: measured normalized growth of the molecule C=C1C2CC[C@H]3[C@]4(C)C[C@H](OC5OC(CO)C(OS(=O)(=O)O)C(OS(=O)(=O)O)C5OC(=O)CC(C)C)C[C@@H](C(=O)O)[C@H]4CC[C@]3(C2)[C@H]1O (some centres not stated) is ____.
**A:** 0.992

**Q:** Fill blank: measured normalized growth of the molecule COc1ccc2c(C)cc(=O)oc2c1 is ____.
**A:** 1.01

**Q:** Fill blank: measured normalized growth of the molecule COc1cc(NS(=O)(=O)c2ccc(N)cc2)nc(OC)n1 is ____.
**A:** 0.983

**Q:** Fill blank: measured normalized growth of the molecule CC1=C(C(C)O)C2=NC1C=c1[nH]c(c(C)c1C(C)O)=Cc1[nH]c(c(CCC(=O)O)c1C)C=c1[nH]c(c(C)c1CCC(=O)O)=C2 (configuration not stated) is ____.
**A:** 0.986

**Q:** Fill blank: measured normalized growth of the molecule COc1cc2c(cc1OC)[C@@H]1C(=O)c3ccc(OC)c(CC=C(C)C)c3O[C@@H]1CO2 is ____.
**A:** 1.02

**Q:** Fill blank: measured normalized growth of the molecule C[N+](C)(C)CCOC(N)=O is ____.
**A:** 1.02

**Q:** Fill blank: measured normalized growth of the molecule S=c1nc[nH]c2nc[nH]c12 is ____.
**A:** 1.01

**Q:** Fill blank: measured normalized growth of the molecule CC1CC2C3CCC4=CC(=O)C=C[C@]4(C)[C@@]3(F)[C@@H](O)C[C@]2(C)[C@@]1(O)C(=O)CO (some centres not stated) is ____.
**A:** 0.975
